Source: patent US20240366612A1

Test system: HTT mRNA
Experiment: Splicing RT-qPCR assay, HTT canonical (CJ) and alternative (AJ) junction mRNA
Assay type: cell-based
Conditions: Homo sapiens, increase in AJ mRNA, A673 or K562 cells, 24 hours treatment
PROPERTY MEASURED: AC50

// field: AC50; key: Cc1cc(-c2nn3c(=O)cc(N4CCNCC4)nc3s2)cc2cn(C)nc12 [Compound 206] ; value = 1000 to 10000 nM

Input Cc1cn2cc(-c3cc(=O)n4cc(N5CCNC6(CC6)C5)sc4n3)cc(F)c2n1 [Compound 207] . Output AC50: > 10000 nM

For Cc1cn2nc(-c3cc4ncn(C5CCNCC5)c(=O)c4s3)cc(C)c2n1 [Compound 238] the compound record lists AC50 as 100 to 1000 nM

Item: Cc1cc(-c2cc(=O)n3cc(N4CCN(C)CC4)sc3n2)cc2cn(C)nc12 [Compound 109] | AC50: > 10000 nM

// AC50 value for Cc1cn2cc(-c3cc4ccn(C5CCN(C)CC5)c(=O)c4s3)cc(F)c2n1 [Compound 808] : 1000 to 10000 nM

So for Cc1cn2cc(-c3nc4sc(C5CCNCC5)cc4c(=O)[nH]3)cc(F)c2n1 [Compound 250] , the logged AC50 turned out to be 100 to 1000 nM

Memo: Cn1cc2cc(-c3cc4ncn(C5CCNCC5)c(=O)c4s3)cc(C#N)c2n1 [Compound 259] , reported AC50: 1000 to 10000 nM

GET /value?item= Cc1cn2cc(-c3cc4ncn(C5CCNCC5)c(=O)c4s3)cc(C)c2n1 [Compound 261] &field=AC50 returns 1000 to 10000 nM

Item: Cc1cc(-c2nc3ncn(C4CCN(C)CC4)c(=O)c3s2)cc2cn(C)nc12 [Compound 234] | AC50: 100 to 1000 nM

What the record says about Cc1cn2cc(-c3cc4ncn(C5CCNC5)c(=O)c4s3)cc(F)c2n1 (stereo not drawn) [Compound 270] : AC50 is 100 to 1000 nM

The compound identified as Cc1cn2cc(-c3nn4c(=O)cc(N5CCN(C)C6(CC6)C5)nc4s3)cc(F)c2n1 [Compound 218] registered its AC50 at 1000 to 10000 nM

Value of AC50 reported for the compound Cc1cc(-c2cc3ncn(C4CCNCC4)c(=O)c3s2)cc2cn(C)nc12 [Compound 236] is 100 to 1000 nM

Entry under test: Cc1cn2nc(-c3nc4ncn(C5CCNCC5)c(=O)c4s3)cc(C)c2n1 [Compound 231] . Its AC50 was 100 to 1000 nM

Per the record, Cc1cc(-c2nc3ncn(C4CCNCC4)c(=O)c3s2)cc2cn(C)nc12 [Compound 233] has AC50 of < 100 nM

Notebook: Cc1cn2cc(-c3nn4c(=O)cc(N(C)C5CC(C)(C)NC(C)(C)C5)nc4s3)cc(F)c2n1 [Compound 215] , AC50 read as 1000 to 10000 nM

// AC50 lookup, compound = Cn1cc2cc(-c3cc4ncn(C5CCNCC5)c(=O)c4s3)cc(F)c2n1 [Compound 257] , result: 1000 to 10000 nM

// field: AC50; key: Cc1cn2cc(-c3cn4c(=O)cc(N5CCN(C)CC5)nc4s3)cc(F)c2n1 [Compound 184] ; value = > 10000 nM

// AC50 value for Cc1cn2cc(-c3nn4c(=O)cc(N5CCNCC5)nc4s3)cc(F)c2n1 [Compound 214] : > 10000 nM

----------
Test system: SMN2 CJ mRNA
Experiment: Gene panel canonical junction qPCR assay, SMN2
Format: cell-based
Conditions: Homo sapiens, larger gene panel, read-out: SMN2 IC50 (decrease in CJ mRNA levels)
pIC50: −log10 of the molar value. Counter-ions that a name gives are not always drawn.
Can you tell me pIC50 for the items I'm about to list?

Reported pIC50 ( `Cc1cc(-c2nn3c(=O)cc(N4CCN(C)CC4)nc3s2)cc2cn(C)nc12` ) = 5.00 to 6.00

Field pIC50 (entry `Cc1cn2nc(-c3nc4ncn(C5CCNCC5)c(=O)c4s3)cc(C)c2n1` ) reads 5.00 to 6.00

For reference, reported pIC50 for `Cc1cn2cc(-c3nc4sc(C5CCN(C)CC5)cc4c(=O)[nH]3)cc(F)c2n1` stands at 5.00 to 6.00

The recorded pIC50 for Cc1cn2cc(-c3cc4ncn([C@H]5CCN[C@@H](C)C5)c(=O)c4s3)cc(F)c2n1 (relative stereo) [Compound 278, hydrochloride] is > 7.00

Reported pIC50 of `Cc1cn2nc(-c3nc4sc(N5CCN(C)CC5)nc4c(=O)[nH]3)cc2c(C)n1` : 6.00 to 7.00

// field: pIC50; key: Cn1cc2cc(-c3nc4ncn(C5CCNCC5)c(=O)c4s3)c(O)cc2n1 [Compound 253, hydrochloride] ; value = 6.00 to 7.00

# compound `Cc1cn2cc(-c3cc4ncn(C5CCNCC5)c(=O)c4s3)cc(C)c2n1` ; its pIC50 = > 7.00

Input `Cc1cn2cc(-c3nn4c(=O)cc(N(C)C5CC(C)(C)NC(C)(C)C5)nc4s3)cc(F)c2n1` . Output pIC50: 6.00 to 7.00

----------
Please respond with reported GI50 at 72 h for every item in the list.
Assay: Cell Titer Glo 2.0 cell viability assay
Conditions: human, K562 cells

compound Cn1cc2cc(-c3cc4ncn(C5CCNCC5)c(=O)c4s3)cc(F)c2n1 [Compound 257] , GI50 at 72 h observed: 1000 to 10000 nM

Cc1cn2cc(N3CCc4cc(C5CCNCC5)sc4C3=O)cc(F)c2n1 [Compound 800] yielded GI50 at 72 h of > 10000 nM

GI50 at 72 h measured on Cc1cn2nc(-c3cc4ncn(C5CCNCC5)c(=O)c4s3)cc2c(C)n1 [Compound 262] = 100 to 1000 nM

GI50 at 72 h reading for Cc1cc(-c2nc3ncn(C4CCNCC4)c(=O)c3s2)cc2cn(C)nc12 [Compound 233] : 100 to 1000 nM

Entry Cc1cn2cc(-c3cc4ccn(C5CCN(C)CC5)c(=O)c4s3)cc(F)c2n1 [Compound 808] — recorded GI50 at 72 h = 100 to 1000 nM

----------
Tested on: HTT mRNA
Assay: Splicing RT-qPCR assay, HTT canonical (CJ) and alternative (AJ) junction mRNA
Format: cell-based
Conditions: Homo sapiens, decrease in CJ mRNA, A673 or K562 cells, 24 hours treatment
pIC50: −log10 of the molar value. Structures can show the parent of a compound that is named as a salt.
PROPERTY MEASURED: pIC50

Kindly note: HTT mRNA, `Cc1cn2nc(-c3nc4sc(N5CCN(C)CC5)nc4c(=O)[nH]3)cc2c(C)n1` , pIC50 value reported: < 5.00

Query `CN1CCN(c2nc3ncn(-c4ccc5nn(C)cc5c4)c(=O)c3s2)CC1` on HTT mRNA; pIC50 returned: 5.00 to 6.00

Lab entry: HTT mRNA assay, compound Cc1cn2cc(-n3cnc4nc(N(C)C5CC(C)(C)NC(C)(C)C5)sc4c3=O)cc(F)c2n1 [Compound 227, formate] , pIC50 = < 5.00

The measured pIC50 that `Cc1cc(-c2nc3ncn(C4CCN(C)CC4)c(=O)c3s2)cc2cn(C)nc12` showed for HTT mRNA is 6.00 to 7.00

Bench note, HTT mRNA: entry `Cc1cn2nc(-c3nc4sc(N5CCNCC5)nc4c(=O)[nH]3)cc2c(C)n1` , its pIC50 = 6.00 to 7.00

pIC50 value, target or system HTT mRNA, for `Cn1cc2cc(-c3cc4ncn(C5CCNCC5)c(=O)c4s3)cc(F)c2n1` : 5.00 to 6.00

Entry `Cc1cn2cc(-n3cnc4nc(N5CCNCC5)sc4c3=O)cc(F)c2n1` , tested on HTT mRNA, has a reported pIC50 of 6.00 to 7.00

Response field pIC50 (HTT mRNA) for item `Cc1cn2cc(-c3cc4ncn(C5CCN(C)CC5)c(=O)c4s3)cc(F)c2n1` : 6.00 to 7.00

`Cc1cn2cc(-c3nn4c(=O)cc(N5CCN(C)CC5)nc4s3)cc(F)c2n1` tested on HTT mRNA gave pIC50: 5.00 to 6.00

I looked up `Cc1cc(-c2cc(=O)n3nc(N4CCN(C)CC4)sc3n2)cc2cn(C)nc12` and its pIC50 for HTT mRNA was < 5.00

Measured on HTT mRNA, `Cc1cn2cc(-c3cc(=O)n4nc(N5CCN(C)CC5)sc4n3)cc(F)c2n1` has a documented pIC50 of 5.00 to 6.00

Log: HTT mRNA, compound `Cn1cc2cc(-n3cnc4nc(N5CCNCC5)sc4c3=O)ccc2n1` , pIC50 = < 5.00

Here `Cc1nc(-c2cc3ncn(C4CCNCC4)c(=O)c3s2)cc2cn(C)nc12` was tested on HTT mRNA, and its pIC50 came to 5.00 to 6.00

Entry `Cc1cn2cc(-c3cc4ncn([C@H]5CCNC[C@@H]5O)c(=O)c4s3)cc(F)c2n1` under HTT mRNA had pIC50 of 6.00 to 7.00

The reported pIC50 value, HTT mRNA, for `Cc1cn2cc(-c3nn4c(=O)cc(N(C)C5CC(C)(C)NC(C)(C)C5)nc4s3)cc(F)c2n1` reads 5.00 to 6.00

Readout pIC50 for `Cc1cn2cc(-c3cn4c(=O)cc(N5CCNCC5)nc4s3)cc(F)c2n1` , test system HTT mRNA, was < 5.00

Lab note: compound `Cc1cn2cc(-c3cc4ncn(C5CCNCC5)c(=O)c4s3)ncc2n1` tested on HTT mRNA; recorded pIC50 was 5.00 to 6.00
